List of pIC50 values.
target: UniProt:P24941; experiment: NanoBRET assay in MCF-7 cells, CDK2; conditions: transfected MCF-7 cells, 2 hours, n = 1 or average
pIC50: −log10 of the molar value.
property label: pIC50

>>> experimental_result("CC(C)[C@H](CO)Nc1nc(N[C@H]2C[C@@H](C)N(S(C)(=O)=O)C2)c2ncn(C(C)C)c2n1 [Example 34]")
7.92
>>> experimental_result("CCn1cnc2c(N[C@H]3CCN(S(=O)(=O)NC)C3)nc(N[C@@H]3c4ccccc4C[C@@H]3O)nc21 [Example 51]")
7.49
>>> experimental_result("CC[C@H](Nc1nc(N[C@@H]2CN(S(=O)(=O)NC)C[C@H]2F)c2ncn(CC)c2n1)[C@@H](C)O (relative stereo) [Example 52]")
7.68
>>> experimental_result("CC[C@H](CO)Nc1nc(N[C@H]2CCN(S(C)(=O)=O)C2)c2ncn(CC)c2n1 [Example 38]")
7.68
>>> experimental_result("CCn1cnc2c(N[C@H]3CCN(S(=O)(=O)NC)C3)nc(N[C@@H](CC(F)(F)F)[C@@H](C)O)nc21 (relative stereo) [Example 21]")
7.31
>>> experimental_result("CC(C)n1cnc2c(N[C@H]3CCN(S(C)(=O)=O)C3)nc(NC(CO)C3CCCC3)nc21 (some centres unmarked) [Example 15]")
7.66
>>> experimental_result("CC[C@H](Nc1nc(N[C@H]2CCN(S(=O)(=O)c3cn(C)cn3)C2)c2ncn(C(C)C)c2n1)[C@@H](C)O [Example 32]")
7.09
>>> experimental_result("CCn1cnc2c(N[C@H]3CCN(S(=O)(=O)C4CC4)C3)nc(N[C@@H](CO)C(C)C)nc21 [Example 41]")
7.72
>>> experimental_result("CCNS(=O)(=O)N1CC[C@H](Nc2nc(N[C@@H](C)C(C)(C)O)nc3c2ncn3CC)C1 (relative stereo) [Example 59]")
7.43
>>> experimental_result("CC(C)[C@H](CO)Nc1nc(N[C@H]2C[C@H](C)N(S(C)(=O)=O)C2)c2ncn(C(C)C)c2n1 [Example 35]")
7.28
>>> experimental_result("CC[C@H](Nc1nc(N[C@H]2CCN(S(=O)(=O)c3cnn(C)c3)C2)c2ncn(C(C)C)c2n1)[C@@H](C)O [Example 31]")
7.41
>>> experimental_result("CC[C@H](Nc1nc(N[C@H]2CCN(S(=O)(=O)NC)C2)c2ncn(CC)c2n1)C(C)(C)O [Example 46]")
6.72
>>> experimental_result("CC[C@H](CO)Nc1nc(N[C@H]2CCN(S(=O)(=O)NC)C2)c2ncn(CC)c2n1 [Example 47]")
7.46
>>> experimental_result("CC(C)[C@H](CO)Nc1nc(N[C@@H]2CN(S(C)(=O)=O)C[C@H]2F)c2ncn(C(C)C)c2n1 [Example 33]")
7.59
>>> experimental_result("CC(C)[C@H](CO)Nc1nc(N[C@H]2CCN(S(C)(=O)=O)C2)c2ncn(C3CC3)c2n1 [Example 29]")
7.05
>>> experimental_result("CC[C@H](Nc1nc(N[C@H]2CCN(S(=O)(=O)NC[C@@H]3COCCO3)C2)c2ncn(CC)c2n1)[C@@H](C)O [Example 25]")
7.16
>>> experimental_result("CCNS(=O)(=O)N1CC[C@H](Nc2nc(N[C@@H](CC)[C@@H](C)O)nc3c2ncn3C)C1 [Example 53]")
7.37
>>> experimental_result("CCNS(=O)(=O)N1CC[C@H](Nc2nc(N[C@@H](CC)C(C)=O)nc3c2ncn3CC)C1 [Example 7]")
7.89
>>> experimental_result("CC(C)[C@H](CO)Nc1nc(N[C@H]2CCN(S(=O)(=O)C3CC3)C2)c2ncn(C(C)C)c2n1 [Example 27]")
7.96
>>> experimental_result("CCn1cnc2c(N[C@H]3CCN(S(=O)(=O)CF)C3)nc(N[C@@H](CO)C(C)C)nc21 [Example 43]")
7.96
>>> experimental_result("CC[C@H](Nc1nc(N[C@H]2CCN(S(N)(=O)=O)C2)c2ncn(CC)c2n1)C(C)=O [Example 10]")
7.00
>>> experimental_result("CC(C)[C@H](CO)Nc1nc(N[C@@H]2CN(S(C)(=O)=O)C[C@H]2C)c2ncn(C(C)C)c2n1 [Example 36]")
7.30
>>> experimental_result("CCNS(=O)(=O)N1CC[C@H](Nc2cc(N[C@@H](CC)[C@@H](C)O)nc3c2ncn3CC)C1 [Example 60]")
7.85
>>> experimental_result("CCn1cnc2c(N[C@H]3CCN(S(=O)(=O)NC)C3)nc(-c3cccc4c3CNC4=O)nc21 [Example 1]")
7.77
>>> experimental_result("CCNS(=O)(=O)N1CC[C@H](Nc2nc(N[C@@H](CO)CC3CC3)nc3c2ncn3CC)C1 (relative stereo) [Example 58]")
7.77
>>> experimental_result("CC[C@H](Nc1nc(N[C@H]2CCN(S(N)(=O)=O)C2)c2ncn(CC)c2n1)[C@@H](C)O [Example 9]")
7.00
>>> experimental_result("CCn1cnc2c(N[C@H]3CCN(S(=O)(=O)NC)C3)nc(N[C@@H](C)[C@@H](O)C(F)(F)F)nc21 (single isomer, unassigned) [Example 50]")
7.19
>>> experimental_result("CC[C@H](Nc1nc(N[C@H]2C[C@@H](C)N(S(C)(=O)=O)C2)c2ncn(C(C)C)c2n1)[C@@H](C)O [Example 37]")
7.21
>>> experimental_result("CC(C)n1cnc2c(N[C@H]3CCN(S(C)(=O)=O)C3)nc(NC(CO)C3CCCO3)nc21 (some centres unmarked) [Example 16]")
7.03
